Reference source for all entries: ChEMBL document CHEMBL2074299

Target: OCT1 (solute carrier family 22 member 1) (Homo sapiens, UniProt O15245)
Sequence (O15245 whole entry): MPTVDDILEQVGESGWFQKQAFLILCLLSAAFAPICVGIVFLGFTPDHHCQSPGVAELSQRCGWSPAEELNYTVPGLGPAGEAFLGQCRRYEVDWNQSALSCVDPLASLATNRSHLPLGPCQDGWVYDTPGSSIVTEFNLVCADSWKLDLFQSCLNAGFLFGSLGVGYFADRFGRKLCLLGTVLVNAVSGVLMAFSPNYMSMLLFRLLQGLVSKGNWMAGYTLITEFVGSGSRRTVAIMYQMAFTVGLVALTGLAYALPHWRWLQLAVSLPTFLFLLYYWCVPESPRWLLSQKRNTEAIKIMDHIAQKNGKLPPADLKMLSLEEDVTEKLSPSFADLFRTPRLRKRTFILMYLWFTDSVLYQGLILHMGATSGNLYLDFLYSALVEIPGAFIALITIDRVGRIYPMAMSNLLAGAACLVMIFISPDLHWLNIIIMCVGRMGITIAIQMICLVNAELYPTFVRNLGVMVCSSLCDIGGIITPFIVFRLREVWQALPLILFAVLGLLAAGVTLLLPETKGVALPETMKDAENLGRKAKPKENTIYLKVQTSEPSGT
Assay: TP_TRANSPORTER: inhibition of Tetraethyl ammonium uptake (Caspofungin:100 uM) in OCT1-expressing HeLa cells
Type: functional, cell-based
Set-up: scale not given: the % may be the effect or the level left
Details: HeLa cells that express OCT1, probe tetraethyl ammonium, read-out: Activity
readout.type: activity at 100 µM (%)
Only the number, expressed in %, is required.

Exercise: May I ask what activity at 100 µM has been recorded for CC[C@H](C)C[C@H](C)CCCCCCCCC(=O)N[C@H]1C[C@@H](O)[C@@H](NCCN)NC(=O)[C@@H]2[C@@H](O)CCN2C(=O)[C@H]([C@H](O)CCN)NC(=O)[C@H]([C@H](O)[C@@H](O)c2ccc(O)cc2)NC(=O)[C@@H]2C[C@@H](O)CN2C(=O)[C@H]([C@@H](C)O)NC1=O ?
Solution: 30
